molecular target: Nuclear receptor ROR-gamma (Mus musculus) (UniProt P51450); experiment: qHTS for inhibitors of ROR gamma transcriptional activity; conditions: Drosophila S2 Gal4-RORgamma UAS-luciferase reporter, 20 h; series mostly up to 53.6 µM; further: nearly all actives have a fitted effect of over 60% in size
Sequence (P51450 whole entry, looked up, the tested form may be a part): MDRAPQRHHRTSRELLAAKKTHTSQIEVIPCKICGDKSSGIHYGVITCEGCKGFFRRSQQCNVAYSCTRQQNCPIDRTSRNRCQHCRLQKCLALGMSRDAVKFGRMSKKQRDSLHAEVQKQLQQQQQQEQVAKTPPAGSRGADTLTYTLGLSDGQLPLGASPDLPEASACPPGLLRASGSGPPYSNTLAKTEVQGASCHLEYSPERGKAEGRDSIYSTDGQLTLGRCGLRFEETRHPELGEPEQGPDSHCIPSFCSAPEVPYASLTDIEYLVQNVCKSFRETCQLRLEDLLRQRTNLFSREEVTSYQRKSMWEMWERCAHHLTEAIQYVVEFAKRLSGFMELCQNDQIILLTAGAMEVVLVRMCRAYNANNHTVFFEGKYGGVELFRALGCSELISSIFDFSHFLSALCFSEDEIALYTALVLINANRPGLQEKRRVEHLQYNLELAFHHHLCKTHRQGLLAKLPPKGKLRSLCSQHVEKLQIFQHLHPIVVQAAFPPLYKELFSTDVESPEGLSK
The campaign covered roughly 310,000 compounds. About 17,000 (5.5%) were called active. About 11% were inconclusive and are not listed. The call rests on the fitted dose curve; in most records, active means well fitted inhibition curve with a large enough effect; inconclusive means small, poorly fitted or top-dose-only effect, or effect the other way; inactive means no such curve, though single readings can be large or run the other way. This excerpt belongs to a sample that is enriched for actives.
Possible outcomes: true (1) = active, false (0) = inactive

>  <compound>
COc1cc(C(=O)OCC(=O)NC(C)CCc2ccccc2)cc(OC)c1OC (stereo unspecified)

>  <category.label>
false (0)

$$$$
>  <compound>
CC(NCc1cccs1)C(=O)Nc1cc(Cl)cc(Cl)c1 (stereo unspecified)

>  <category.label>
false (0)

$$$$
>  <compound>
COC(=O)c1ccc(N2CCOCC2)c(NC(=O)c2ccc3c(c2)OCCO3)c1

>  <category.label>
false (0)

$$$$
>  <compound>
O=C(CN1CCN(c2ccc(Cl)cc2)CC1)NCc1cccs1

>  <category.label>
false (0)

$$$$
>  <compound>
Fc1ccccc1CNC(=S)Nc1ccc(Cl)cc1

>  <category.label>
true (1)

$$$$
>  <compound>
COC(=O)CSc1nc2ccccc2c(=O)n1Cc1ccccc1

>  <category.label>
false (0)

$$$$

---

biological target: Nuclear receptor ROR-gamma (Mus musculus); assay: qHTS for inhibitors of ROR gamma transcriptional activity; details: Drosophila S2 Gal4-RORgamma UAS-luciferase reporter, 20 h; series mostly up to 53.6 µM; further: nearly all actives have a fitted effect of over 60% in size
Out of some 310,000 compounds screened, about 17,000 (5.5%) were called active. Roughly 11% stayed inconclusive and do not appear here. The call rests on the fitted dose curve; in most records, active means well fitted inhibition curve with a large enough effect; inconclusive means small, poorly fitted or top-dose-only effect, or effect the other way; inactive means no such curve, though single readings can be large or run the other way. Shown is part of a subset that was picked to be rich in actives.
Possible outcomes: active, inactive

>  <compound>
COc1ccc(-c2[nH]ncc2CN(C)Cc2c(C)n[nH]c2C)c(OC)c1

>  <category.label>
inactive

$$$$
>  <compound>
COCCN1CCn2c(nc3cc(NS(C)(=O)=O)ccc32)C1

>  <category.label>
inactive

$$$$
>  <compound>
O=C(O)c1ccc(Cn2c(=S)[nH]c3cc(Cl)ccc3c2=O)cc1

>  <category.label>
inactive

$$$$
>  <compound>
O=C(CCN1C(=O)[C@@H]2Cc3ccccc3CN2C1=O)NCc1ccccc1

>  <category.label>
inactive

$$$$
>  <compound>
CC(=O)COc1ccc2c(-c3ccccc3)cc(=O)oc2c1

>  <category.label>
inactive

$$$$
>  <compound>
CCOc1cc(-c2noc(CCCC(=O)NC3CCCCC3)n2)ccc1OC

>  <category.label>
inactive

$$$$
>  <compound>
Cc1ccccc1NC(=S)Nc1cccc([N+](=O)[O-])c1

>  <category.label>
inactive

$$$$
>  <compound>
COc1ccc(CCN2C(=O)c3[nH]nc(-c4ccccc4O)c3C2c2ccc(C)cc2)cc1OC (configuration not stated)

>  <category.label>
inactive

$$$$
>  <compound>
COc1ccc(-c2n[nH]c(C)c2-c2ccccc2OC)c(O)c1

>  <category.label>
active

$$$$
>  <compound>
COc1ccccc1-c1cnn2c(N3CCOCC3)cc(C)nc12

>  <category.label>
inactive

$$$$
>  <compound>
Cc1cc(F)ccc1N1CCC(N2CCN(C)C(CCO)C2)CC1 (configuration not stated)

>  <category.label>
inactive

$$$$
>  <compound>
CCCCC(=O)Nc1nnc(S(=O)(=O)N(C)Cc2ccco2)s1

>  <category.label>
inactive

$$$$
>  <compound>
COc1ccc(C(=O)NC(C)c2nccs2)cc1OC1CCN(C(C)C)CC1 (configuration not stated)

>  <category.label>
inactive

$$$$
>  <compound>
Cc1ccc(CS(=O)(=O)CCC(=O)NCc2ccc(F)cc2)cc1

>  <category.label>
inactive

$$$$
>  <compound>
Cc1ccc(C)c(NC(=O)c2cc(-c3cc(C)cc(C)c3O)n[nH]2)c1

>  <category.label>
inactive

$$$$
>  <compound>
COC(=O)C(NC(C)=O)(Nc1nc2c(s1)CCCC2)C(F)(F)F (configuration not stated)

>  <category.label>
inactive

$$$$
>  <compound>
CCCCc1nc2cc(C(=O)NCCc3cnn(C)c3)ccc2o1

>  <category.label>
inactive

$$$$
>  <compound>
Cc1noc(C)c1COC(=O)COc1ccc(-c2ccccc2)cc1

>  <category.label>
inactive

$$$$
>  <compound>
Cc1cc(-c2ccc(S(=O)(=O)N3CCN(c4cccc(C(F)(F)F)c4)CC3)s2)on1

>  <category.label>
inactive

$$$$
>  <compound>
CCn1c(=S)sc2c(=O)n(CC(=O)Nc3ccc(OC)cc3)c(C)nc21

>  <category.label>
inactive

$$$$
>  <compound>
CCOc1ccc(-c2nc(N)ncc2-c2ccccc2OC)c(O)c1

>  <category.label>
inactive

$$$$
>  <compound>
CC1(C)OC2CC3C4CCC5=CC(=O)CCC5(C)C4(F)C(O)CC3(C)[C@]2(C(=O)CCl)O1 (some centres not stated)

>  <category.label>
active

$$$$

---

biological target: Nuclear receptor ROR-gamma (Mus musculus); assay: qHTS for inhibitors of ROR gamma transcriptional activity; settings: Drosophila S2 Gal4-RORgamma UAS-luciferase reporter, 20 h; series mostly up to 53.6 µM; further: nearly all actives have a fitted effect of over 60% in size
Hit rate of the full screen: of about 310,000 compounds, about 17,000 (5.5%) were called active. Another 11% or so got no clear call; they are omitted. Calls follow the shape of the dose curve; as a rule, active = well fitted inhibition curve with a large enough effect; inconclusive = small, poorly fitted or top-dose-only effect, or effect the other way; inactive = no such curve, though single readings can be large or run the other way. Only a selection was taken, and actives are over-represented in it overall.
Possible outcomes: active, inactive

>  <compound>
O=C(CN1CCN(c2ccc(O)cc2)CC1)Nc1ccc(-c2ccccc2)cc1

>  <category.label>
inactive

$$$$
>  <compound>
CSc1nc(-c2ccccc2)nc(C(Cl)Cl)n1

>  <category.label>
active

$$$$
>  <compound>
Clc1nc(NC2CCCC2)nc(N2CCOCC2)n1

>  <category.label>
inactive

$$$$
>  <compound>
O=C(Cc1ccccc1)NC(=S)Nc1ccc(N2CCCCC2)cc1

>  <category.label>
active

$$$$
>  <compound>
CCOc1ccc(CN2CCN(Cc3ccc4cc(F)ccc4n3)CC2CCO)cc1 (stereo unspecified)

>  <category.label>
inactive

$$$$
>  <compound>
O=C(CN1CCN(c2cccc(Cl)c2)CC1)Nc1ccc(S(=O)(=O)N2CCOCC2)cc1

>  <category.label>
inactive

$$$$
>  <compound>
CC(=O)Nc1ccc(NC(=O)C2CCCN(S(=O)(=O)c3ccc(Cl)cc3)C2)cc1 (stereo unspecified)

>  <category.label>
inactive

$$$$
>  <compound>
O=C(CCS(=O)(=O)c1ccccc1)NC1CCCC1

>  <category.label>
inactive

$$$$
>  <compound>
CC(C)C(C)NC(=O)COc1nc2ccccc2nc1N(C)C1CCCCC1 (stereo unspecified)

>  <category.label>
inactive

$$$$
>  <compound>
COc1ccc(C(=O)NC2CCN(C(=S)Nc3ccccc3)CC2)cc1

>  <category.label>
inactive

$$$$
>  <compound>
O=C(COc1ccc([N+](=O)[O-])cc1)Nc1cccc(C(=O)Nc2ccccc2C(=O)O)c1

>  <category.label>
inactive

$$$$

---

target: Nuclear receptor ROR-gamma (Mus musculus) (UniProt P51450); experiment: qHTS for inhibitors of ROR gamma transcriptional activity; settings: Drosophila S2 Gal4-RORgamma UAS-luciferase reporter, 20 h; series mostly up to 53.6 µM; further: nearly all actives have a fitted effect of over 60% in size
About 17,000 (5.5%) of roughly 310,000 compounds were called active. About 11% were inconclusive and are not listed. The call rests on the fitted dose curve; in most records, active means well fitted inhibition curve with a large enough effect; inconclusive means small, poorly fitted or top-dose-only effect, or effect the other way; inactive means no such curve, though single readings can be large or run the other way. The sample as a whole holds a higher share of actives than the screen did.
Possible outcomes: active, inactive

>  <compound>
Cc1cc(=O)n2nc(N3CCC(C(=O)Nc4c(F)c(F)c(F)c(F)c4F)CC3)sc2n1

>  <category.label>
inactive

$$$$
>  <compound>
Cc1cc(=O)[nH]c(=S)[nH]1

>  <category.label>
inactive

$$$$
>  <compound>
Cc1cc(Br)ccc1NC(=S)NC1CCCC1

>  <category.label>
active

$$$$
>  <compound>
COC(CNC(=O)c1ccc2c(c1)ncn2-c1cc(C)cc(C)c1)OC

>  <category.label>
inactive

$$$$
>  <compound>
O=C(O)c1cc([N+](=O)[O-])c(Nc2cccc3ccccc23)c([N+](=O)[O-])c1

>  <category.label>
inactive

$$$$
>  <compound>
COc1ccc(S(=O)(=O)N2CCOC2CNC(=O)C(=O)NCc2ccncc2)cc1OC (stereo not drawn)

>  <category.label>
inactive

$$$$
>  <compound>
Cc1ccc(NC(=S)Nc2ccc(F)cc2)cc1

>  <category.label>
active

$$$$
>  <compound>
Cc1[nH]c2ccccc2c1C(=O)CN1CC(C)CC(C)C1 (stereo not drawn)

>  <category.label>
inactive

$$$$
>  <compound>
Cc1cc(C)cc(NC(=S)NCc2ccc(F)cc2)c1

>  <category.label>
active

$$$$
>  <compound>
CC(C)[C@@H](C(=O)O)N(Cc1cccc(CN([C@H](C(=O)O)C(C)C)S(C)(=O)=O)c1)S(C)(=O)=O

>  <category.label>
inactive

$$$$
>  <compound>
COc1ccc(Cc2nc3ccc(C(=O)NCC4CCOCC4)cc3o2)cc1OC

>  <category.label>
inactive

$$$$
>  <compound>
CCCCC(=O)NCc1ccc(F)cc1

>  <category.label>
inactive

$$$$
>  <compound>
O=C(N/N=C/c1ccccn1)c1cccnc1

>  <category.label>
inactive

$$$$
>  <compound>
Cc1c(Br)c([N+](=O)[O-])nn1C(C)C(=O)Nc1nccs1 (stereo not drawn)

>  <category.label>
active

$$$$
>  <compound>
COc1cc(NC(=S)NCc2ccc(S(N)(=O)=O)cc2)cc(OC)c1

>  <category.label>
inactive

$$$$
>  <compound>
Cc1ccc(C(=O)CNc2ccc(F)cc2)cc1

>  <category.label>
inactive

$$$$
>  <compound>
O=C(N/N=C/c1cccc(Br)c1)c1ccc(N2CCCC2=O)cc1

>  <category.label>
inactive

$$$$
>  <compound>
O=C(NC1CCN(Cc2ccccc2)CC1)c1cc(Br)c(Br)[nH]1

>  <category.label>
inactive

$$$$
>  <compound>
S=C(Nc1ccc(Br)cc1Cl)NC1CCN(Cc2ccccc2)CC1

>  <category.label>
active

$$$$
>  <compound>
CC(NC(=O)C(=O)Nc1nccs1)c1ccccc1 (stereo not drawn)

>  <category.label>
inactive

$$$$
>  <compound>
COc1ccccc1N1CCN(C(=O)c2cc(=O)c3cc(C)cc(C)c3o2)CC1

>  <category.label>
inactive

$$$$
>  <compound>
CCCc1[nH]nc2c1C(c1ccc(Br)s1)C(C#N)=C(N)O2 (stereo not drawn)

>  <category.label>
active

$$$$
>  <compound>
O=C(CCn1ccc([N+](=O)[O-])n1)Nc1nccs1

>  <category.label>
inactive

$$$$
